study-system: human MMP-2 (Homo sapiens, UniProt P08253)
Sequence (P08253 110-660): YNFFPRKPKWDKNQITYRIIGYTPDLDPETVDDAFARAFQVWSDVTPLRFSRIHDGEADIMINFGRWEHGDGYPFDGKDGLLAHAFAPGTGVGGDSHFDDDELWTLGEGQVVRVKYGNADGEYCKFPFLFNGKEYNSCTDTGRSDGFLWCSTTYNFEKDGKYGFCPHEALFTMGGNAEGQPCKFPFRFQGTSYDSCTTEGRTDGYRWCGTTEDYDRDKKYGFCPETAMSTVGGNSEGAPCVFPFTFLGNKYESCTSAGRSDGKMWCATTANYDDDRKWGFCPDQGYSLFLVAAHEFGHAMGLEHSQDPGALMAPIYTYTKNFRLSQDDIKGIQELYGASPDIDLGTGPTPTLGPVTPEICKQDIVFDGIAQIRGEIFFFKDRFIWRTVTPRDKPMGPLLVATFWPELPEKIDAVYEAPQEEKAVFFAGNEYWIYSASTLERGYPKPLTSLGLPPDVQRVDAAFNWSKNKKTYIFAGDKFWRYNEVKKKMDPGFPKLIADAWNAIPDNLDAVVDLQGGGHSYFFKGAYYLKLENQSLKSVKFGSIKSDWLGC
condition-description: read-out: Ki, MMP-2
assay-readout: pKi
Would you please state pKi, meaning minus log10 of the concentration in mol/L, as a bare number?

{"molecule": "NCC(=O)Nc1ccc(Oc2ccc(S(=O)(=O)CC3CS3)cc2)cc1 (centres unmarked) [Compound 11a]", "pKi": 6.36}

Consider now this further molecule.
Lookup: Name the recorded pKi of the item Nc1ccc(Oc2ccc(S(=O)(=O)CC3CS3)cc2)cc1O (centres unmarked) [Compound 22] in your answer.
Found: 7.11

---

study-system: human MMP-2 (Homo sapiens)
assay-comment: biochemical
condition-description: read-out: kon, MMP-2
assay-readout: kon (M⁻¹ s⁻¹)
Provide only the numeric value, understood in M⁻¹ s⁻¹.

{"compound": "NCC(=O)Nc1ccc(Oc2ccc(S(=O)(=O)CC3CS3)cc2)cc1 (stereo not shown) [Compound 11a]", "kon / M⁻¹ s⁻¹": 1900}
{"compound": "Nc1ccc(Oc2ccc(S(=O)(=O)CC3CS3)cc2)cc1O (stereo not shown)", "kon / M⁻¹ s⁻¹": 1700}
{"compound": "NCCCCC(N)C(=O)Nc1ccc(Oc2ccc(S(=O)(=O)CC3CS3)cc2)cc1 (stereo not shown) [Compound 11b]", "kon / M⁻¹ s⁻¹": 3400}

Consider now this further compound.
Lookup: Name the recorded kon of the item NC(CCC(=O)O)C(=O)Nc1ccc(Oc2ccc(S(=O)(=O)CC3CS3)cc2)cc1 (stereo not shown) [Compound 11c] in your answer.
Found: 2500
